# subject-of-test: Progesterone Receptor (PR) LBD (Homo sapiens, UniProt P06401)
# Construct: purchased Invitrogen PV4666
# Sequence (P06401 679-913 limits assumed): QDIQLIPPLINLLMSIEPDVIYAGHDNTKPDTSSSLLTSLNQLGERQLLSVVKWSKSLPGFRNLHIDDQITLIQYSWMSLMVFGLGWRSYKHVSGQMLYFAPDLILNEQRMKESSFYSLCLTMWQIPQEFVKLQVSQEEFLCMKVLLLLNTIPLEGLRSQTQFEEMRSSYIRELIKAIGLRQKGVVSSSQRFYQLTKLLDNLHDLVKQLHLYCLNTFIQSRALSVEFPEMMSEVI
# experimental-protocol: TR-FRET SRC1-4 coactivator recruitment assay, PR LBD
# Type: biochemical
# condition: TR-FRET, Progesterone = EC80; ± SEM (n = 6); read-out: NR LBDs IC50 (μM) PR
value-type: IC50

O=C(N/N=C/c1cccc(Cl)c1)c1cc2ccccc2cc1O; 50 to 100 µM

Query block: Given the entry `COc1ccc(O)c(/C=N/NC(=O)c2cc3ccccc3cc2O)c1` , report its measured IC50.
Result block: 50 to 100 µM

Query block: What do we get for `O=C(N/N=C/c1ccccc1O)c1cc2ccccc2cc1O` ?
Result block: > 100 µM
